- ASSAYED_TARGET: T1, human IL-18 binding protein (human, UniProt O95998 31-194); note: unit not given here
- T1 sequence (looked up): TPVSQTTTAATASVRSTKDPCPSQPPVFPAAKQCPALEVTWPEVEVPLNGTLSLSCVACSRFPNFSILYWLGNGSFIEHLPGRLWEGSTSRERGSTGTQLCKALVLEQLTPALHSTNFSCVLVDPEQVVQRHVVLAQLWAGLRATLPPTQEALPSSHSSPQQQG
- ASSAY_SUMMARY: cell-based or functional assay
MEASURED_ENDPOINT: HEK-Blue activity, +100 nM BP, DF-1,000,000

Need HEK-Blue activity, +100 nM BP, DF-1,000,000 of yeast display IL-18 variant K53S, S55Y (ligand) YFGKLESKLSVIRNLNDQVLFIDQGNRPLFEDMTDSDMRDNAPRTIFIISMYSDYQPRGMAVTISVKSEKISTLSSENKIISFKEMNPPDNIKDTKSDIIFFQRSVPGHDNKMQFESSSYEGYFLASEKERDLFKLILKKEDELGDRSIMFTVQNED , thanks.
0.21

# credit: patent US20240182536A1
